System: SARS-CoV-2 (USA-WA1/2020) in Calu-3 cells
Type: cell-based
Settings: low dose (100 nM), Calu-3, 48 h
For each entry below, report its dsRNA signal, AU Low value.
The answer consists of two parts: a number and, after it, its unit.

{"compound": "Nc1ccc(/C=C/C(=O)NCc2cc3cc(-c4ccc(C(=O)N5CCC(F)(F)CC5)cc4)cc(-c4ccc(F)cc4)c3o2)cn1 [KPT-9274]", "reading": "25813.6 AU"}
{"compound": "O=C1c2c(O)cc(O)cc2O[C@H](c2cc(O)c(O)c(O)c2)[C@H]1O [Dihydromyricetin]", "reading": "12380.4 AU"}
{"compound": "CN1CCN(c2cccc(Nc3nc4c(-c5ccc(S(C)(=O)=O)cc5)cccn4n3)c2)CC1 [CEP-33779]", "reading": "3458.4 AU"}

Required: dsRNA signal, AU Low, one value per compound below.
1. CS(=O)(=O)N1CCN(Cc2cc3nc(-c4cccc5[nH]ncc45)nc(N4CCOCC4)c3s2)CC1.CS(=O)(=O)O.CS(=O)(=O)O [GDC-0941 dimethanesulfonate]
2. Brc1c(Br)c(Br)c2n[nH]nc2c1Br [TBB]
3. N#Cc1cccc(-c2c[nH]c3ncnc(N4CCOCC4)c23)c1 [PF-06447475]

Solution:
35251.8 AU
16520.0 AU
40604.3 AU
